Method Notes: Cytotoxicity against mouse BALB/3T3 clone A31 cells incubated for 48 hrs by celltiter glo luminescent assay
Format: toxicity, cell-based
Please provide measured CC50 at 48 h for the entries that follow.

compound=C[N+]1(C)CCCN(c2cc3c(cc2F)c(=O)c(C(=O)O)cn3C2CC2)CC1.[I-] reported_endpoint="CC50 at 48 h" result="> 200 µM"
compound=C[N+]1(C)CCN(c2cc3c(cc2F)c(=O)c(C(=O)O)cn3C2CC2)CC1.[I-] reported_endpoint="CC50 at 48 h" result="> 200 µM"

Turning now to a further record.
Data request: For the compound O=C(O)C1=Cc2ccccc2N2C[N+]3(CCCN(c4cc5c(cc4F)c(=O)c(C(=O)O)cn5C4CC4)CC3)N=C12.[Cl-] (stereo not drawn) , report CC50 at 48 h.
Data returned: 160 µM

====

So I've got a bunch of compounds here, and I need their selectivity ratio values.
Method Notes: Selectivity index, ratio of CC50 for cytotoxicity against mouse BALB/3T3 clone A31 cells to MIC for antibacterial activity against Pseudomonas aeruginosa ATCC 27853 assessed as bacterial growth inhibition
Assay type: toxicity, cell-based
Experimental Setup: read-out: Selectivity Index

compound="O=C(O)C1=Cc2ccccc2N2C[N+]3(CCCN(c4cc5c(cc4F)c(=O)c(C(=O)O)cn5C4CC4)CC3)N=C12.[Cl-] (stereo not drawn)" reported_endpoint="selectivity ratio" result=6.4
compound=C[N+]1(C)CCCN(c2cc3c(cc2F)c(=O)c(C(=O)O)cn3C2CC2)CC1.[I-] reported_endpoint="selectivity ratio" result="> 32"

We now examine a further compound.
Data request: Give the reported value of selectivity ratio for this record: `C[N+]1(C)CCN(c2cc3c(cc2F)c(=O)c(C(=O)O)cn3C2CC2)CC1.[I-]`
Data returned: > 32

====

System: Staphylococcus aureus
Method Notes: Antibacterial activity against Staphylococcus aureus ATCC 29213 assessed as bacterial growth inhibition incubated for 24 hrs by broth microdilution assay
Assay type: functional
Structures can show the parent of a compound that is named as a salt.
Field: MIC. Provide a value for each of the molecules that follow.
Give bare numbers, in µM.

// below: answered molecules
molecule=C[N+]1(C)CCCN(c2cc3c(cc2F)c(=O)c(C(=O)O)cn3C2CC2)CC1.[I-] quantitative_readout=6.25
molecule="CCn1cc(C(=O)O)c(=O)c2cc(F)c(N3CC[N+](C)(C)C(C)C3)c(F)c21 (stereo not drawn)" quantitative_readout=25
molecule="O=C(O)C1=Cc2ccccc2N2C[N+]3(CCCN(c4cc5c(cc4F)c(=O)c(C(=O)O)cn5C4CC4)CC3)N=C12.[Cl-] (stereo not drawn)" quantitative_readout=25
molecule=CCn1cc(C(=O)O)c(=O)c2cc(F)c(N3CC[N+](C)(C)CC3)cc21 quantitative_readout=25
molecule=CCn1cc(C(=O)O)c(=O)c2cc(F)c(N3CC[N+](C)(C)CC3)nc21 quantitative_readout=50
molecule="O=C(O)c1cn(C2CC2)c2cc(N3CCNCC3)c(F)cc2c1=O [CIPROFLOXACIN HYDROCHLORIDE]" quantitative_readout=1.36

// switching to the query molecule
Data request: Tell me MIC of `C[N+]1(C)CCN(c2cc3c(cc2F)c(=O)c(C(=O)O)cn3C2CC2)CC1.[I-]` when tested on Staphylococcus aureus.
Data returned: 6.25

====

Method Notes: Selectivity index, ratio of CC50 for cytotoxicity against mouse BALB/3T3 clone A31 cells to MIC for antibacterial activity against Staphylococcus aureus ATCC 29213 assessed as bacterial growth inhibition
Assay type: toxicity, cell-based
Experimental Setup: read-out: Selectivity Index
Reported Endpoint: selectivity ratio

Reference set (2 entries):
compound="O=C(O)C1=Cc2ccccc2N2C[N+]3(CCCN(c4cc5c(cc4F)c(=O)c(C(=O)O)cn5C4CC4)CC3)N=C12.[Cl-] (stereo not drawn)" result=6.4
compound=C[N+]1(C)CCN(c2cc3c(cc2F)c(=O)c(C(=O)O)cn3C2CC2)CC1.[I-] result="> 32"

# input for lookup
Data request: Hello, please tell me recorded selectivity ratio for this one: `C[N+]1(C)CCCN(c2cc3c(cc2F)c(=O)c(C(=O)O)cn3C2CC2)CC1.[I-]`
Data returned: > 32

====

System: Pseudomonas aeruginosa
Method Notes: Antibacterial activity against Pseudomonas aeruginosa ATCC 27853 assessed as bacterial growth inhibition incubated for 24 hrs by broth microdilution assay
Format: functional
Counter-ions that a name gives are not always drawn.
I'd appreciate it if you could supply MIC values for the items below.
Give bare numbers, in µM.

compound=C[N+]1(C)CCN(c2cc3c(cc2F)c(=O)c(C(=O)O)cn3C2CC2)CC1.[I-] result_units=µM quantitative_readout=6.25

Below are some compounds; for each one, tell me its MIC.
1. O=C(O)C1=Cc2ccccc2N2C[N+]3(CCCN(c4cc5c(cc4F)c(=O)c(C(=O)O)cn5C4CC4)CC3)N=C12.[Cl-] (stereo not drawn)
2. CCn1cc(C(=O)O)c(=O)c2cc(F)c(N3CC[N+](C)(C)C(C)C3)c(F)c21 (stereo not drawn)
3. O=C(O)c1cn(C2CC2)c2cc(N3CCNCC3)c(F)cc2c1=O [CIPROFLOXACIN HYDROCHLORIDE]
4. C[N+]1(C)CCCN(c2cc3c(cc2F)c(=O)c(C(=O)O)cn3C2CC2)CC1.[I-]

Data returned:
25
75
2.72
6.25

====

System: Pseudomonas aeruginosa
Method Notes: Antibacterial activity against Pseudomonas aeruginosa ATCC 27853 assessed as bacterial growth inhibition incubated for 24 hrs by broth microdilution assay
Type: functional
Reported Endpoint: MIC

I need MIC for every entry listed below, if you could help.
1. CCn1cc(C(=O)O)c(=O)c2cc(F)c(N3CC[N+](C)(C)CC3)cc21
2. CCn1cc(C(=O)O)c(=O)c2cnc(N3CC[N+](C)(C)CC3)nc21

Data returned:
1: > 50 µM; 2: > 50 µM

Data request: Please indicate MIC recorded for `CCn1cc(C(=O)O)c(=O)c2cc(F)c(N3CC[N+](C)(C)CC3)nc21`
Data returned: > 50 µM
